Test system: UACC-62 melanoma
Assay: NCI-60 one-dose screen, 48 h
Details: 10 µM unless noted
Experimental: Growth inhibition of the UACC-62 human tumor cell line is measured as a screen for anti-cancer activity. Cells are grown in 96 well plates and exposed to the test compound for 48 hours. Compounds are tested at a single concentration, which is 10^-5 M for most compounds. The reported endpoint is percent growth (GI% or GIPRCNT), where numbers from 0 - 100% represent growth inhibition, and numbers from -100% - 0 represent cell death. For example, a value of 40 represents 60% growth inhibition. […]
The panel holds about 83,000 compounds, 20% with a hit somewhere; the sample as a whole holds those more often. Activity calls are given as the source filed them. How the source made its calls: active means growth percent below 10; inactive means the rest.
Respond using exactly one of the listed classes: active, inactive

Solved cases (6 shown):
compound: CCOC(=O)c1c(NS(=O)(=O)c2ccc(C)cc2)sc2c1CCC1(C2)OCCO1
class: inactive

compound: COc1ccc(-c2ccc(-c3ccc(C(=N)N)s3)s2)cc1Cl
class: active

compound: COc1ccc(-c2c(N)n[nH]c2-c2cc3c(c(OC)c2OC)OCO3)cc1
class: inactive

compound: Cc1ccc(-c2cc3nc(C(Cl)Cl)nc(-c4ccccc4C)n3n2)cc1
class: inactive

compound: Cc1ccc(NS(=O)(=O)c2cc(C)ccc2C)cc1
class: inactive

compound: CCO/C=N/C1=C(C#N)C(c2ccc(Cl)cc2)c2c(c3ccccc3n(C)c2=O)O1 (stereo unspecified)
class: inactive

Input: Fill in: this test's call for Cc1ccc(S(=O)(=O)NCCNc2nccc(-c3c(-c4cccc(N)c4)nc4sccn34)n2)cc1 is ___
Output: inactive

Input: Fill in: this test's call for Clc1ccccc1-c1nc2ccccc2[nH]1 is ___
Output: inactive

Input: Fill in: this test's call for O=C(NCCNc1nccc(-n2ccc3cccnc32)n1)c1ccc(C(F)(F)F)cc1 is ___
Output: inactive

Input: Fill in: this test's call for C=C1CCC2C(C)(CO)C(O)CCC2(C)C1C/C=C1/C(=O)OCC1O/C=C/c1ccccc1 (stereo unspecified) is ___
Output: inactive

Input: Fill in: this test's call for COc1cc(C2C3=C(COC3=O)Nc3cc4c(cc32)CCC4)cc2c1OCO2 (stereo unspecified) is ___
Output: inactive

Input: Fill in: this test's call for O=c1[nH]c(-c2ccccc2)nc(CN2CCCCC2)c1O is ___
Output: inactive

Input: Fill in: this test's call for C=C[C@@H]1C[C@@H]2Cc3cc(F)ccc3N1O2 is ___
Output: inactive

Input: Fill in: this test's call for COc1ccc(/C=C2\N=C(c3ccccc3)N(C(=O)c3ccccc3O)NC2=O)cc1 is ___
Output: inactive

Input: Fill in: this test's call for COc1ccc(NC(=O)c2c(Nc3ccc(OC)cc3OC)n[nH]c2N)c(OC)c1 is ___
Output: inactive

Input: Fill in: this test's call for COc1cc(-c2nn(C(=O)NS(=O)(=O)c3ccccc3)cc2-c2ccncc2)ccc1Cl is ___
Output: inactive

Input: Fill in: this test's call for Fc1ccc(-c2nc(-c3nc4ncccc4[nH]3)cc3c2[nH]c2ccccc23)cc1F is ___
Output: inactive

Input: Fill in: this test's call for O=C(NNC(=S)Nc1ccccc1)c1cc2ccc1CCc1ccc(cc1)CC2 is ___
Output: inactive

Input: Fill in: this test's call for COc1ccc(-c2ccc(-c3ccc(C(=N)N)cn3)s2)cc1OC is ___
Output: inactive
